molecular target: T1, gp120IIIB (subgroup B) (HIV-1, UniProt P04578 33-511); assay: SPR
T1 construct: it is not tied to this reagent; also called IIIB gp120 (B)
measured property: kon (M⁻¹ s⁻¹)
One number for each entry, in M⁻¹ s⁻¹.

Observe how each entry below is paired with its result.
[[record]]
binder = "L92E7 (VHH, Purified by IMAC; tags not written into the chain) VHH: EVQLVESGGGLVQPGGSLRLSCAASGNIVSIDAAGWFRQAPGKQREPVATILTGGATNYADSVKGRFTISRDNAKNTVYLQMSSLKPEDTAVYYCYAPMIYYGGRYSDYWGQGTQVTVSS"
unit_descriptor = "M⁻¹ s⁻¹"
experimental_result = 174000

[[record]]
binder = "L91C2 (VHH, Purified by IMAC; tags not written into the chain) VHH: EVQLVESGGGLVQPGGSLRLSCAASGFTLDGYAIGWFRQAPGKEREAISCITTAGTIYYADSVKGRVTISRDNAKNTVYLQMNSLKPEDTAVYLCAADGFDTPCVAGTDWGYDYEGQGTQVTVSS"
unit_descriptor = "M⁻¹ s⁻¹"
experimental_result = 122000

[[record]]
binder = "L82B4F (VHH, Family member of L81H9; tags not written into the chain) VHH: EVQLVESGGGLVQAGGSLRLSCAASGFTSDDYAIGWFRRAPGKEREGVSYISIEDGSTYSADSVKGRFTISSDYAKNTVYLQMNGLKPEDTAVYYCAAAILGDSVRWLQEYDYDYWGQGTQVTVSS"
unit_descriptor = "M⁻¹ s⁻¹"
experimental_result = "2.3e+07"


Now take the following binder into account.
Which kon reading was recorded for the binder L91H9 (VHH, Purified by IMAC; tags not written into the chain) VHH: EVQLVESGGGLVQAGGSLRLSCAVSGATFDDYAIGWFRQAPGKEREGVSYIGCNDGSTYYAGSVKGRFTISCDYAKNTVYLQMNSLKPEDTAVYYCAAAAQWATIRWIHEYDYDTWGQGTQVTVSS ?
173000
